Measured values drawn from patent US20250215039A1 for this set.

System: cancer cell lines
Assay: Cancer cell proliferation activity (CellTiterGlo, 72 h)
Format: cell-based
Settings: Homo sapiens, NCI-H460, 72 h, NCIH460 cell line (lung), 72 h; read-out: IC50
pIC50: −log10 of the molar value.
Where pIC50 equals or exceeds 6, the correct label is 1; where it does not, the label is 0.

[
  {
    "compound": "CCC[C@]1(CO)O[C@@H](n2cnc3c(N)nc(F)nc32)C[C@@H]1O",
    "answer_label": 1
  },
  {
    "compound": "C[C@]1(CO)O[C@@H](n2cnc3c(N)nc(F)nc32)C[C@@H]1O",
    "answer_label": 1
  },
  {
    "compound": "N#C[C@]1(CO)O[C@@H](n2cc(F)c(N)nc2=O)C[C@@H]1O",
    "answer_label": 0
  },
  {
    "compound": "CC[C@]1(CO)O[C@@H](n2cc(F)c(N)nc2=O)C[C@@H]1O",
    "answer_label": 0
  },
  {
    "compound": "Nc1ccn([C@@H]2O[C@H](CO)[C@@H](O)C2(F)F)c(=O)n1 [gemcitabine, reference compound]",
    "answer_label": 1
  },
  {
    "compound": "O=c1[nH]c(=O)n([C@H]2C[C@H](O)[C@](CO)(CF)O2)cc1F",
    "answer_label": 0
  },
  {
    "compound": "C[C@]1(CO)O[C@@H](n2cc(F)c(=O)[nH]c2=O)C[C@@H]1O",
    "answer_label": 1
  }
]

###

System: cancer cell lines
Assay: Cancer cell proliferation activity (CellTiterGlo, 72 h)
Format: cell-based
Conditions: Homo sapiens, OVCAR-3, 72 h, OVCAR3 cell line (ovary), 72 h; read-out: IC50

[
  {
    "compound": "CC[C@]1(CO)O[C@@H](n2cnc3c(N)nc(F)nc32)[C@H](O)[C@@H]1O [Cpd. No. 173]",
    "qualifying_sign": "=",
    "IC50, nM": 80
  },
  {
    "compound": "C[C@]1(CO)O[C@@H](n2cnc3c(N)nc(F)nc32)C[C@@H]1O [Cpd. No. 126]",
    "qualifying_sign": "=",
    "IC50, nM": 140
  },
  {
    "compound": "N#C[C@]1(CO)O[C@@H](n2cc(F)c(N)nc2=O)C[C@@H]1O [Cpd. No. 6]",
    "qualifying_sign": ">",
    "IC50, nM": 50000
  },
  {
    "compound": "Cc1cn([C@H]2C[C@H](O)[C@@](C#N)(CO)O2)c(=O)[nH]c1=O [Cpd. No. 123]",
    "qualifying_sign": ">",
    "IC50, nM": 50000
  },
  {
    "compound": "Nc1nc(F)nc2c1ncn2[C@H]1C[C@H](O)[C@](CO)(CF)O1 [compound 150]",
    "qualifying_sign": "=",
    "IC50, nM": 2050
  },
  {
    "compound": "CC[C@]1(CO)O[C@@H](n2cc(F)c(N)nc2=O)C[C@@H]1O [Cpd. No. 2]",
    "qualifying_sign": ">",
    "IC50, nM": 50000
  },
  {
    "compound": "COC[C@]1(CO)O[C@@H](n2cnc3c(N)nc(F)nc32)C[C@@H]1O [Cpd. No. 140]",
    "qualifying_sign": "=",
    "IC50, nM": 180
  },
  {
    "compound": "CCC[C@]1(CO)O[C@@H](n2cnc3c(N)nc(F)nc32)C[C@@H]1O [Cpd. No. 129]",
    "qualifying_sign": "=",
    "IC50, nM": 170
  }
]

###

System: cancer cell lines
Experiment: Cancer cell proliferation activity (CellTiterGlo, 72 h)
Format: cell-based
Conditions: Homo sapiens, WSU-NHL, 72 h, WSU-NHL cell line (hematological), 72 h; read-out: IC50
pIC50: −log10 of the molar value.
quantity_kind: pIC50

[
  {
    "compound": "C[C@]1(CO)O[C@@H](n2cc(F)c(N)nc2=O)C[C@@H]1O",
    "result_number": 6.42
  },
  {
    "compound": "Nc1ccn([C@@H]2O[C@H](CO)[C@@H](O)C2(F)F)c(=O)n1 [gemcitabine, reference compound]",
    "result_number": 8.35
  },
  {
    "compound": "C=C[C@]1(CO)O[C@@H](Nc2[nH]c(=O)ncc2Br)C[C@@H]1O",
    "result_number": 5.63
  },
  {
    "compound": "C[C@]1(CO)O[C@@H](n2cc(F)c(=O)[nH]c2=O)C[C@@H]1O",
    "result_number": 6.21
  }
]

###

Tested on: cancer cell lines
Assay: Cancer cell proliferation activity (CellTiterGlo, 72 h)
Assay type: cell-based
Conditions: Homo sapiens, C-33-A, 72 h, C33A (endometrial), 72 h; read-out: IC50 cell proliferation
Method: Dose response relationships on cell proliferation was assessed for representative Compounds of the Disclosure on cancer cell lines. […] Cells were cultured in the appropriate media. […] After incubation for 72 h at 37° C. at 5% or 10% CO2 dependent on the medium, cell plates were equilibrated to room temperature for one hour, CellTiterGlo reagent (Promega) was added and luminescence was measured approximately an hour later using a luminometer. […]
pIC50: −log10 of the molar value.

[
  {
    "smiles_notation": "Nc1nc(F)nc2c1ncn2[C@@H]1O[C@H](CO)[C@@H](O)[C@H]1O",
    "pIC50": 7.30
  },
  {
    "smiles_notation": "C[C@]1(CO)O[C@@H](n2ccc(N)nc2=O)C(F)(F)[C@@H]1O",
    "pIC50": 5.68
  },
  {
    "smiles_notation": "C[C@]1(CO)O[C@@H](n2ccc(N)nc2=O)[C@@H](O)[C@@H]1O",
    "pIC50": 5.84
  },
  {
    "smiles_notation": "Nc1nc(=O)n([C@H]2C[C@H](O)[C@@H](CO)O2)cc1F",
    "pIC50": 8.05
  },
  {
    "smiles_notation": "Nc1nc(F)nc2c1ncn2[C@H]1C[C@H](O)[C@@H](CO)O1",
    "pIC50": 6.39
  }
]

###

Tested on: cancer cell lines
Assay: Cancer cell proliferation activity (CellTiterGlo, 72 h)
Format: cell-based
Conditions: Homo sapiens, A-431, 72 h, A431 (skin), 72 h; read-out: IC50 cell proliferation
Overview of reported log10(IC50) across a group of compounds:
quantity_kind: log10(IC50) (log10 of the value in nM)

[
  {
    "smiles_notation": "C[C@]1(CO)O[C@@H](n2ccc(N)nc2=O)C(F)(F)[C@@H]1O",
    "log10(IC50)": 3.58
  },
  {
    "smiles_notation": "Nc1nc(F)nc2c1ncn2[C@@H]1O[C@H](CO)[C@@H](O)[C@H]1O",
    "log10(IC50)": 1.60
  },
  {
    "smiles_notation": "Nc1ccn([C@H]2C[C@H](O)[C@](CO)(CF)O2)c(=O)n1",
    "log10(IC50)": 2.67
  },
  {
    "smiles_notation": "C[C@]1(CO)O[C@@H](n2cnc3c(N)nc(F)nc32)[C@H](O)[C@@H]1O",
    "log10(IC50)": 1.70
  },
  {
    "smiles_notation": "CCC[C@]1(CO)O[C@@H](n2cnc3c(N)nc(F)nc32)[C@H](O)[C@@H]1O",
    "log10(IC50)": 1.85
  },
  {
    "smiles_notation": "C[C@]1(CO)O[C@@H](n2ccc(N)nc2=O)[C@@H](O)[C@@H]1O",
    "log10(IC50)": 3.40
  },
  {
    "smiles_notation": "Nc1nc(F)nc2c1ncn2[C@H]1C[C@H](O)[C@@H](CO)O1",
    "log10(IC50)": 3.09
  },
  {
    "smiles_notation": "Nc1nc(=O)n([C@H]2C[C@H](O)[C@@H](CO)O2)cc1F",
    "log10(IC50)": -0.40
  },
  {
    "smiles_notation": "Nc1nc(=O)n([C@H]2C[C@H](O)[C@](CO)(CF)O2)cc1F",
    "log10(IC50)": 0.30
  },
  {
    "smiles_notation": "Nc1nc(F)nc2c1ncn2[C@@H]1O[C@H](CO)[C@@H](O)[C@@H]1O",
    "log10(IC50)": 4.05
  }
]

###

Tested on: cancer cell lines
Test: Cancer cell proliferation activity (CellTiterGlo, 72 h)
Assay type: cell-based
Conditions: Homo sapiens, MG-63, 72 h, MG63 (bone), 72 h; read-out: IC50 cell proliferation
Decide using IC50 alone. Strictly below 400 nM: condition met. Equal to or above 400 nM: condition not met.

[
  {
    "smiles_notation": "C[C@]1(CO)O[C@@H](n2cnc3c(N)nc(F)nc32)[C@H](O)[C@@H]1O",
    "answer_label": "condition not met"
  },
  {
    "smiles_notation": "C[C@]1(CO)O[C@@H](n2ccc(N)nc2=O)[C@@H](O)[C@@H]1O",
    "answer_label": "condition not met"
  },
  {
    "smiles_notation": "Nc1nc(=O)n([C@H]2C[C@H](O)[C@@H](CO)O2)cc1F",
    "answer_label": "condition met"
  },
  {
    "smiles_notation": "Nc1nc(=O)n([C@H]2C[C@H](O)[C@](CO)(CF)O2)cc1F",
    "answer_label": "condition met"
  },
  {
    "smiles_notation": "Nc1ccn([C@H]2C[C@H](O)[C@](CO)(CF)O2)c(=O)n1",
    "answer_label": "condition not met"
  }
]
